Numbers sourced from the NIST ThermoML archive (doi:10.1021/acs.jced.8b01135).

Condition: 293.15 K; 102 kPa; Liquid; Frequency=3 MHz; Single path-length method
Observed Property: speed of sound (m/s)
Expressed in m/s, but write only the number.

Molecule: CCCC1CCCCC1 [1-cyclohexylpropane]
speed of sound, m/s: 1307.7

Q) Please report the measured speed of sound for CCCCCCCCC1CCCCC1 [octylcyclohexane]
A) 1386.4

Q) Please report the measured speed of sound for CCCCCCCCCCCCC1CCCCC1 [dodecylcyclohexane]
A) 1422.9

Q) Please report the measured speed of sound for CCCCCC1CCCCC1 [pentylcyclohexane]
A) 1346

Q) Please report the measured speed of sound for CCCCCCCCCCCC [dodecane]
A) 1297.7

Q) Please report the measured speed of sound for CCCCCCCCCCC1CCCCC1 [decylcyclohexane]
A) 1406.4

Q) Please report the measured speed of sound for CCCCCCCC1CCCCC1 [heptylcyclohexane]
A) 1374.2

Q) Please report the measured speed of sound for CCCCCCC1CCCCC1 [hexylcyclohexane]
A) 1360.9

----------
Each item that follows carries a reported speed of sound.
Condition: 303.15 K; 102 kPa; Liquid; Frequency=3 MHz; Single path-length method
Expressed in m/s, but write only the number.

Sample answers from the record:
Smiles Notation: CCCCCCC1CCCCC1
Observed Property: speed of sound
Readout Number: 1322.1
//
Smiles Notation: CCCCCC1CCCCC1
Observed Property: speed of sound
Readout Number: 1306.7
//
Smiles Notation: CCCCCCCCCCCCC1CCCCC1
Observed Property: speed of sound
Readout Number: 1386.3

Q) Please report the measured speed of sound for CCCCCCCC1CCCCC1
A) 1336.1

Q) Please report the measured speed of sound for CCCCCCCCCCC1CCCCC1
A) 1369.1

----------
Condition: 293.15 K; 102 kPa; Liquid; Vibrating tube method
Observed Property: mass density (kg/m3)
Expressed in kg/m3, but write only the number.

Smiles Notation: CCCCCCCC1CCCCC1
Readout Number: 811

Note: attention shifts to another entry.
Q) Please report the measured mass density for CCCCCCC1CCCCC1
A) 807.76

----------
Each item that follows carries a reported viscosity.
Condition: 313.15 K; 102 kPa; Liquid; Concentric cylinders viscometry
± gives the expanded uncertainty stated by the source.
Provide a numeric answer, followed by its unit.

Smiles Notation: CCCCCCCCC1CCCCC1
viscosity: 2.26 ± 0.03 mPa·s
//
Smiles Notation: CCCC1CCCCC1
viscosity: 0.75 ± 0.031 mPa·s
//
Smiles Notation: CCCCCC1CCCCC1
viscosity: 1.21 ± 0.03 mPa·s
//
Smiles Notation: CCCCCCCCCCC1CCCCC1
viscosity: 3.23 ± 0.03 mPa·s

Q) Please report the measured viscosity for CCCCCCCCCCCC
A) 1.08 ± 0.03 mPa·s

Q) Please report the measured viscosity for CCCCCCCC1CCCCC1
A) 1.85 ± 0.03 mPa·s

Q) Please report the measured viscosity for CCCCCCC1CCCCC1
A) 1.52 ± 0.03 mPa·s

Q) Please report the measured viscosity for CCCCCCCCCCCCC1CCCCC1
A) 4.48 ± 0.04 mPa·s

----------
Condition: 323.15 K; 102 kPa; Liquid; Frequency=3 MHz; Single path-length method
Each item that follows carries a reported speed of sound.
Expressed in m/s, but write only the number.

Sample answers from the record:
Smiles Notation: CCCCCCCCC1CCCCC1
speed of sound, m/s: 1275.5
//
Smiles Notation: CCCCCCCCCCC1CCCCC1
speed of sound, m/s: 1297.2
//
Smiles Notation: CCCCCCCC1CCCCC1
speed of sound, m/s: 1262.2

Q) Please report the measured speed of sound for CCCCCCCCCCCC
A) 1184

Q) Please report the measured speed of sound for CCCCCC1CCCCC1
A) 1230.5

Q) Please report the measured speed of sound for CCCCCCCCCCCCC1CCCCC1
A) 1315.4

Q) Please report the measured speed of sound for CCCCCCC1CCCCC1
A) 1247.1

Q) Please report the measured speed of sound for CCCC1CCCCC1
A) 1186.5

----------
Condition: 298.15 K; 102 kPa; Liquid; Frequency=3 MHz; Single path-length method
Each item that follows carries a reported speed of sound.
Expressed in m/s, but write only the number.

Smiles Notation: CCCCCC1CCCCC1
speed of sound [m/s]: 1326.4

Smiles Notation: CCCCCCCCCCCCC1CCCCC1
speed of sound [m/s]: 1404.8

Smiles Notation: CCCCCCCCCCC1CCCCC1
speed of sound [m/s]: 1387.7

Smiles Notation: CCCC1CCCCC1
speed of sound [m/s]: 1287.1

Smiles Notation: CCCCCCCCC1CCCCC1
speed of sound [m/s]: 1367.4

Smiles Notation: CCCCCCC1CCCCC1
speed of sound [m/s]: 1341.4

Q) Please report the measured speed of sound for CCCCCCCC1CCCCC1
A) 1355.1

Q) Please report the measured speed of sound for CCCCCCCCCCCC
A) 1278.2

----------
Each item that follows carries a reported mass density.
Condition: 298.15 K; 102 kPa; Liquid; Vibrating tube method
Numbers after ± are expanded uncertainties.

Sample answers from the record:
Compound: CCCCCC1CCCCC1 [pentylcyclohexane]
Result: 800.48 ± 0.72 kg/m3

Compound: CCCCCCCCC1CCCCC1 [octylcyclohexane]
Result: 810.67 ± 0.72 kg/m3

Compound: CCCC1CCCCC1 [1-cyclohexylpropane]
Result: 789.63 ± 0.71 kg/m3

Compound: CCCCCCCCCCC1CCCCC1 [decylcyclohexane]
Result: 815.16 ± 0.71 kg/m3

Note: attention shifts to another entry.
Q) Please report the measured mass density for CCCCCCCCCCCC [dodecane]
A) 745.09 ± 0.71 kg/m3

----------
Each item that follows carries a reported viscosity.
Condition: 333.15 K; 102 kPa; Liquid; Concentric cylinders viscometry
Expressed in mPa·s, but write only the number.

Compound: CCCCCCCCCCCC [dodecane]
viscosity, mPa·s: 0.813
--
Compound: CCCCCCCCC1CCCCC1 [octylcyclohexane]
viscosity, mPa·s: 1.57
--
Compound: CCCCCCC1CCCCC1 [hexylcyclohexane]
viscosity, mPa·s: 1.12

Q) Please report the measured viscosity for CCCC1CCCCC1 [1-cyclohexylpropane]
A) 0.594

Q) Please report the measured viscosity for CCCCCC1CCCCC1 [pentylcyclohexane]
A) 0.914

Q) Please report the measured viscosity for CCCCCCCCCCC1CCCCC1 [decylcyclohexane]
A) 2.15

Q) Please report the measured viscosity for CCCCCCCC1CCCCC1 [heptylcyclohexane]
A) 1.31

----------
Condition: 303.15 K; 102 kPa; Liquid; Vibrating tube method
Each item that follows carries a reported mass density.
Expressed in kg/m3, but write only the number.

Sample answers from the record:
Smiles Notation: CCCCCCCCCCC1CCCCC1
Unit Annotation: kg/m3
mass density: 811.78
--
Smiles Notation: CCCCCCCCCCCC
Unit Annotation: kg/m3
mass density: 741.46
--
Smiles Notation: CCCCCC1CCCCC1
Unit Annotation: kg/m3
mass density: 796.82
--
Smiles Notation: CCCC1CCCCC1
Unit Annotation: kg/m3
mass density: 785.72
--
Smiles Notation: CCCCCCC1CCCCC1
Unit Annotation: kg/m3
mass density: 800.61

Q) Please report the measured mass density for CCCCCCCCCCCCC1CCCCC1
A) 815.68

----------
Each item that follows carries a reported mass density.
Condition: 333.15 K; 102 kPa; Liquid; Vibrating tube method
Expressed in kg/m3, but write only the number.

Sample answers from the record:
Compound: CCCCCCCC1CCCCC1 [heptylcyclohexane]
mass density (kg/m3): 782.85

Compound: CCCCCCCCC1CCCCC1 [octylcyclohexane]
mass density (kg/m3): 786.41

Compound: CCCCCC1CCCCC1 [pentylcyclohexane]
mass density (kg/m3): 774.75

Compound: CCCCCCCCCCCC [dodecane]
mass density (kg/m3): 719.53

Compound: CCCCCCC1CCCCC1 [hexylcyclohexane]
mass density (kg/m3): 779.05

Compound: CCCC1CCCCC1 [1-cyclohexylpropane]
mass density (kg/m3): 762.09

Q) Please report the measured mass density for CCCCCCCCCCC1CCCCC1 [decylcyclohexane]
A) 791.49

Q) Please report the measured mass density for CCCCCCCCCCCCC1CCCCC1 [dodecylcyclohexane]
A) 795.75

----------
Condition: 323.15 K; 102 kPa; Liquid; Vibrating tube method
Observed Property: mass density (kg/m3)
Expressed in kg/m3, but write only the number.

Smiles Notation: CCCCCCCCCCCCC1CCCCC1
Unit Annotation: kg/m3
mass density: 802.38

Q) Please report the measured mass density for CCCCCCCCCCC1CCCCC1
A) 798.26

----------
Each item that follows carries a reported viscosity.
Condition: 293.15 K; 102 kPa; Liquid; Concentric cylinders viscometry
Expressed in mPa·s, but write only the number.

Smiles Notation: CCCCCCCCCCC1CCCCC1
viscosity (mPa·s): 5.34

Smiles Notation: CCCCCC1CCCCC1
viscosity (mPa·s): 1.69

Smiles Notation: CCCCCCCCC1CCCCC1
viscosity (mPa·s): 3.52

Smiles Notation: CCCC1CCCCC1
viscosity (mPa·s): 0.981

Smiles Notation: CCCCCCCCCCCC
viscosity (mPa·s): 1.49

Smiles Notation: CCCCCCC1CCCCC1
viscosity (mPa·s): 2.19

Q) Please report the measured viscosity for CCCCCCCC1CCCCC1
A) 2.8
